Measured inhibition of individual entries
Biological target: Mannose-6-phosphate isomerase (Homo sapiens) (UniProt P34949)
Sequence (P34949 whole entry, looked up): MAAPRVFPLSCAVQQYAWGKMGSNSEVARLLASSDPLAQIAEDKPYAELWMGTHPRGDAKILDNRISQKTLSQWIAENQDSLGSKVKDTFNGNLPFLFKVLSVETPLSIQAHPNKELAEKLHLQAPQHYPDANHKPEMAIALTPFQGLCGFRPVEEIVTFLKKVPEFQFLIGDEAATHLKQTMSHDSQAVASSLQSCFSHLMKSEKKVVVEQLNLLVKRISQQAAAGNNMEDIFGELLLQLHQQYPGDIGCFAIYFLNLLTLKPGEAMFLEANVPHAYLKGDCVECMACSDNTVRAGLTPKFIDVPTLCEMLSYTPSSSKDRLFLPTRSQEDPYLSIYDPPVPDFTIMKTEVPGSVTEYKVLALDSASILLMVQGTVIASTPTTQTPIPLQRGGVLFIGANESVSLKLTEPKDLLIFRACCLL
Assay: MPI inhibition at elevated mannose 6-phosphate – biochemical, fluorescence intensity, high mannose 6-phosphate, primary screen (AID 1220)
Settings: recombinant PMI enzyme, coupled fluorescence intensity; at 20 µM; active compounds read high
Hit rate of the full screen: of about 190,000 compounds, about 1,300 (0.68%) were called active. What follows is part of a selection rich in actives, with near analogues and random picks from the rest.
Hi! Could you send only the number? It should be in %, unit omitted.

Consider the following illustrative entries.
[[record]]
structure_notation = "COc1cc(/C=C(\\C#N)c2nc3ccc(C)cc3[nH]2)cc([N+](=O)[O-])c1O"
unit_of_measure = "%"
number = 64.5

[[record]]
structure_notation = "COc1cc(/C=C(\\C#N)c2nc3ccccc3[nH]2)c([N+](=O)[O-])cc1OCc1ccccc1"
unit_of_measure = "%"
number = 66.5

[[record]]
structure_notation = "COc1cc(/C=C(\\C#N)c2nc3ccccc3s2)ccc1OCC(=O)Nc1ccccc1"
unit_of_measure = "%"
number = -0.3


Now take the following molecule into account.
QUERY: Fill in the blank: the reported inhibition of Cc1ccc(OC(=O)C(F)(F)F)c2c1NCCC2 is ____.
RESULT: 11.5

====

Biological target: Mannose-6-phosphate isomerase (Homo sapiens) (UniProt P34949)
Assay: MPI inhibition at elevated mannose 6-phosphate – biochemical, fluorescence intensity, high mannose 6-phosphate, primary screen (AID 1220)
Details: recombinant PMI enzyme, coupled fluorescence intensity; at 20 µM; active compounds read high
About 1,300 (0.68%) of roughly 190,000 compounds were called active. Only a selection was taken, and actives are over-represented in it overall.
value.type: inhibition (%)
Write the number in % without appending the unit.

As a guide, the following entries are already answered.
[[record]]
compound = "O=C(O)C1C(c2ccccc2)C(C(=O)Oc2ccccc2)C1c1ccccc1 (stereo unspecified)"
number = -2.4

[[record]]
compound = "O=C(CN1C(=O)NC2(CCCCCC2)C1=O)NC1CCCCCCC1"
number = -3.9

[[record]]
compound = "Cn1c2c(c(=O)n(C)c1=O)C1(C(=O)Nc3ccccc31)C(C#N)=C(N)O2 (stereo unspecified)"
number = 47.4


QUERY: Which measured inhibition value corresponds to Cc1cccc(OCC(=O)Nc2ccc3nc(C)sc3c2)c1 ?
RESULT: -10.9

QUERY: Which value of inhibition has been reported for CCOC(=O)C1CCN(C(=O)CSc2nccc(C)n2)CC1 in the records?
RESULT: -8.5

====

Target: Mannose-6-phosphate isomerase (Homo sapiens) (UniProt P34949)
Test: MPI inhibition at elevated mannose 6-phosphate – biochemical, fluorescence intensity, high mannose 6-phosphate, primary screen (AID 1220)
Details: recombinant PMI enzyme, coupled fluorescence intensity; at 20 µM; active compounds read high
Screen size: about 190,000 compounds; about 1,300 (0.68%) were called active. Shown is part of a subset that was picked to be rich in actives.
Quick reference: inhibition of the listed items.
Number in %, nothing else.

Some compounds with known inhibition results, for comparison:
[[record]]
structure_notation = "O=C(N=Nc1c(O)[nH]c2ccccc12)c1cc(NS(=O)(=O)c2cccs2)cc(NS(=O)(=O)c2cccs2)c1"
number = -0.7

[[record]]
structure_notation = "COc1ccc(S(=O)(=O)N2CCCCC2)cc1NC(=S)Nc1cccc(Cl)c1C"
number = 7.7

[[record]]
structure_notation = "Cc1ccc(S(=O)(=O)N2CCC(=O)N(CCOCc3cccc(F)c3)CC2)cc1"
number = 6.5

[[record]]
structure_notation = "COC(=O)c1ccc2c(c1)N(C)C(=O)CS2"
number = 6.4


Could you now look at the following compound, please?
QUERY: Reported inhibition for CCn1c(N)nc2c1c(=O)n(C)c(=O)n2C : what is it?
RESULT: -1.8

====

Biological target: Mannose-6-phosphate isomerase (Homo sapiens)
Experiment: MPI inhibition at elevated mannose 6-phosphate – biochemical, fluorescence intensity, high mannose 6-phosphate, primary screen (AID 1220)
Conditions: recombinant PMI enzyme, coupled fluorescence intensity; at 20 µM; active compounds read high
The campaign covered roughly 190,000 compounds. About 1,300 (0.68%) were called active. Many of the other results were omitted from the sample, so actives are more common in it than they were.
Class 1 (yes): inhibition at least 10%. Class 0 (no): inhibition below 10%.

Some solved cases for reference:
[[record]]
compound = "CCN1C(=O)/C(=C\\N2CCCCCC2)SC1=S"
classification = "0 (no)"

[[record]]
compound = "CN(C)c1ccc(/C=C/C=N/Nc2nc(N3CCOCC3)nc(N3CCOCC3)n2)cc1"
classification = "0 (no)"

[[record]]
compound = "Clc1ccc(-c2ccc(/C=N/Nc3cc(N4CCOCC4)nc(N4CCOCC4)n3)o2)cc1"
classification = "1 (yes)"


QUERY: Confirm if inhibition reported for the compound O=[N+]([O-])c1ccc(OCCN2CCNCC2)cc1 is 10% or above.
RESULT: 0 (no)

QUERY: Determine whether measured inhibition meets or exceeds 10% for CC1CCCC(C)N1/N=C/c1ccc(Cl)cc1 (configuration not stated)
RESULT: 0 (no)

QUERY: Answer whether inhibition of CCOc1cc(NC(=S)Nc2ccccc2)c(OCC)cc1NC(=O)c1ccccc1 is greater than or equal to 10%.
RESULT: 0 (no)

QUERY: Determine whether this compound has inhibition no lower than 10%: O=C(Oc1cccc2c(O)cccc12)c1ccccc1
RESULT: 1 (yes)

QUERY: Item CC(C)c1nccn1S(=O)(=O)c1cccc([N+](=O)[O-])c1 with inhibition of 10% or above?
RESULT: 0 (no)

QUERY: Identify whether the reported inhibition of the following compound is 10% or greater: N#Cc1nc(-c2cccs2)oc1NCC1CCCO1 (configuration not stated)
RESULT: 0 (no)

====

Target: Mannose-6-phosphate isomerase (Homo sapiens) (UniProt P34949)
Test: MPI inhibition at elevated mannose 6-phosphate – biochemical, fluorescence intensity, high mannose 6-phosphate, primary screen (AID 1220)
Details: recombinant PMI enzyme, coupled fluorescence intensity; at 20 µM
Hit rate of the full screen: of about 190,000 compounds, about 1,300 (0.68%) were called active. Cut-off read from the data, not from the text of the source: active = inhibition above about 50%; inactive = the rest. The sample as a whole holds a higher share of actives than the screen did.
Choose the fitting class; nothing outside active, inactive is accepted.

Study these solved cases before continuing.
[[record]]
molecule = "CCN(CC)CCOC(=O)c1ccc(NC(=O)CNC(=O)C2CCCCC2)cc1"
classification = "inactive"

[[record]]
molecule = "CCCCC(=O)Nc1ccc(NC(=O)c2cc(OC)c(OC)c(OC)c2)cn1"
classification = "inactive"


QUERY: Recorded call for Cc1c(NC(=O)CN2CCN(c3ccccc3)CC2)c(=O)n(-c2ccccc2)n1C ?
RESULT: inactive

QUERY: Outcome logged for CC1CC(C)CN(CC(=O)NC(c2ccccc2)c2ccccc2)C1 (configuration not stated) in this assay:
RESULT: inactive

====

Molecular target: Mannose-6-phosphate isomerase (Homo sapiens)
Assay: MPI inhibition at elevated mannose 6-phosphate – biochemical, fluorescence intensity, high mannose 6-phosphate, primary screen (AID 1220)
Conditions: recombinant PMI enzyme, coupled fluorescence intensity; at 20 µM; active compounds read high
The campaign covered roughly 190,000 compounds. About 1,300 (0.68%) were called active. This excerpt belongs to a sample that is enriched for actives.
Listed here are molecules together with their documented inhibition.
Report the figure in % without appending any unit label.

Example molecules with recorded inhibition:
[[record]]
molecule = "CCC(=O)Nc1c(C#N)c2nc3ccccc3nc2n1-c1ccccc1C"
value_type = "inhibition"
number = 24.5

[[record]]
molecule = "COc1ccc2c(c1)CCC1C2=NN(/C(C)=C\\C(C)=O)C1c1ccc(F)cc1 (stereo unspecified)"
value_type = "inhibition"
number = 54.4

[[record]]
molecule = "CCCCn1c(NC(=O)CC)c(C#N)c2nc3ccccc3nc21"
value_type = "inhibition"
number = 13


QUERY: What value of inhibition has been reported for the following molecule? O=C(NCc1ccccn1)C(=O)NCC(c1ccco1)N1CCOCC1 (stereo unspecified)
RESULT: -8.8

QUERY: Please report the recorded inhibition for COc1ccc2c(c1)C1=NN(/C(C)=C/C(C)=O)C(c3ccc(F)cc3)C1CC2 (stereo unspecified) .
RESULT: 56.3

QUERY: What does the data say about its inhibition? Entry: CSCCNC(=O)c1ccc(OC2CCN(CCc3ccccc3)CC2)cc1
RESULT: -9.3

QUERY: inhibition lookup needed for Cc1ccccc1C(=O)Nc1ccc2c(C#N)c3nc4ccccc4nc3n2c1 , thanks.
RESULT: 6.1

QUERY: I have this molecule here, O=[N+]([O-])c1ccc(O)c(N=Cc2sc3ccccc3c2O)c1 , and I need its recorded inhibition.
RESULT: 25.4

QUERY: Consider the molecule shown here: COc1ccc2c(c1)C1=NN(/C(C)=C/C(C)=O)C(c3cccc(F)c3)C1CC2 (stereo unspecified) What is its recorded inhibition?
RESULT: 44.9

QUERY: What does the record list as inhibition for Cc1ccc([N+](=O)[O-])cc1S(=O)(=O)NCCc1c(C)[nH]c2c(C)cccc12 ?
RESULT: -3

QUERY: Quick one: inhibition for Oc1ccccc1N=Cc1sc2ccccc2c1Cl ?
RESULT: 56.6
